molecules and their reported MIC80
- System: Staphylococcus aureus (ATCC 43300)
- procedure_details: Antibacterial MIC, broth microdilution (CLSI)
- Format: cell-based
- particulars: Staphylococcus aureus, ATCC43300; read-out: MIC80 S. aureus

{"item_smiles": "C/N=C(/CCNC(=O)c1cc(NC(=O)c2cc(NC(=O)c3ccc(/C=C/c4ccc5ccccc5c4)cc3)cn2C)cn1C)NC", "reported": "< 5 µM"}
{"item_smiles": "Cn1cc(NC(=O)c2cc(NC(=O)c3ccc(/C=C/c4cnc5ccccc5c4)cc3)cn2C)cc1C(=O)NCCC(=N)NCCC1CCOCC1", "reported": "5 to 25 µM"}
{"item_smiles": "[H]/N=C(\\CCNC(=O)c1cc(NC(=O)c2cc(NC(=O)c3ccc(C=Cc4ccc(N(C)C)cc4)nc3)cn2C)cn1C)N1CCN(C)CC1", "reported": "5 to 25 µM"}
{"item_smiles": "Cn1cc(NC(=O)c2cc(NC(=O)c3ccc(/C=C/c4cnc5ccccc5c4)cc3)cn2C)cc1C(=O)NCC/C(=N/CC(F)F)NCC(F)F", "reported": "< 5 µM"}
{"item_smiles": "CCCCNC(=N)CCNC(=O)c1cc(NC(=O)c2cc(NC(=O)c3ccc(/C=C/c4cnc5ccccc5c4)cc3)cn2C)cn1C", "reported": "< 5 µM"}

Sample CN(C)c1ccc(/C=C/c2ccc(C(=O)Nc3cc(C(=O)Nc4cc(C(=O)NCCCCC(=N)N)n(C)c4)n(C)c3)cn2)cc1 — what was its MIC80? 5 to 25 µM

Sample CCNC(=N)CCNC(=O)c1cc(NC(=O)c2cc(NC(=O)c3ccc(/C=C/c4ccc(OC)cc4)cc3)cn2C)cn1C — what was its MIC80? 5 to 25 µM

Sample CNC(=O)c1cc(NC(=O)c2cc(NC(=O)c3ccc(/C=C/c4ccc(N(C)C)cc4)nc3)cn2C)cn1C — what was its MIC80? < 5 µM

Sample CN(C)CCCN(CCCN(C)C)C(=O)c1cc(NC(=O)c2cc(NC(=O)c3ccc(/C=C/c4cnc5ccccc5c4)cc3)cn2C)cn1C — what was its MIC80? 25 to 100 µM

* * *

compounds and their reported MIC50
- System: Aspergillus flavus
- procedure_details: Expanded set of filamentous fungi, MIC broth microdilution (CLSI)
- Assay type: cell-based
- particulars: Aspergillus flavus; isolate Aflav2; MIC at 50% inhibition

Study these solved cases before continuing.
{"item_smiles": "CNC(=N)CCNC(=O)c1cc(NC(=O)c2cc(NC(=O)c3ccc(/C=C/c4cnc5ccccc5c4)cc3)cn2C)cn1C", "MIC50": "≤ 1 µg/mL"}
{"item_smiles": "C/N=C(/CCNC(=O)c1cc(NC(=O)c2cc(NC(=O)c3ccc(/C=C/c4cnc5ccccc5c4)cc3)cn2C)cn1C)NC", "MIC50": "≤ 1 µg/mL"}
{"item_smiles": "C/N=C(\\CCNC(=O)c1cc(NC(=O)c2cc(NC(=O)c3ccc(/C=C/c4ccc(N(C)C)cc4)nc3)cn2C)cn1C)NC", "MIC50": "1 to 8 µg/mL"}

Attention now shifts to the item below.
Sample [H]/N=C(\CCNC(=O)c1cc(NC(=O)c2cc(NC(=O)c3ccc(C=Cc4ccc(N(C)C)cc4)nc3)cn2C)cn1C)NC — what was its MIC50? 1 to 8 µg/mL

* * *

- Tested on: Genomic double stranded DNA (salmon)
- procedure_details: Fluorescence intercalator displacement (FID) assay, SYBR-safe probe
- particulars: 20 μM compound, 30° C., lower % = stronger binding
test_readout: % Normalised Fluorescence with gDNA (%)
Report the figure in % without appending any unit label.

Study these solved cases before continuing.
{"item_smiles": "[H]/N=C(\\CCNC(=O)c1cc(NC(=O)c2cc(NC(=O)c3ccc(C=Cc4ccc5nonc5c4)cc3)cn2C)cn1C)NCCc1ccccc1", "test_readout": "% Normalised Fluorescence with gDNA", "reported": 15}
{"item_smiles": "CONC(=N)CCNC(=O)c1cc(NC(=O)c2cc(NC(=O)c3ccc(/C=C/c4cnc5ccccc5c4)cc3)cn2C)cn1C", "test_readout": "% Normalised Fluorescence with gDNA", "reported": 34}
{"item_smiles": "CN(C)c1ccc(/C=C/c2ccc(C(=O)Nc3c[nH]c(C(=O)Nc4c[nH]c(C(=O)NCCN5CCOCC5)c4)c3)cn2)cc1", "test_readout": "% Normalised Fluorescence with gDNA", "reported": 63}

Sample CCCCNC(=O)c1cc(NC(=O)c2cc(NC(=O)c3ccc(/C=C/c4cnc5ccccc5c4)cc3)cn2C)cn1C — what was its % Normalised Fluorescence with gDNA? 51

Sample CN(C)c1ccc(/C=C/c2ccc(C(=O)Nc3cc(C(=O)Nc4c[nH]c(C(=O)NCCN5CCOCC5)c4)n(C)c3)cn2)cc1 — what was its % Normalised Fluorescence with gDNA? 31

Sample CN(C)c1ccc(/C=C/c2ccc(C(=O)Nc3cc(C(=O)Nc4cc(C(=O)NCCCCN5CCCCC5)n(C)c4)n(C)c3)cn2)cc1 — what was its % Normalised Fluorescence with gDNA? 19

* * *

- System: Genomic double stranded DNA (salmon)
- procedure_details: Fluorescence intercalator displacement (FID) assay, SYBR-safe probe
- particulars: 20 μM compound, 30° C., lower % = stronger binding
Quick rule for you: % Normalised Fluorescence with gDNA at 20% or higher means Y, lower means N.

{"compound": "[H]/N=C(\\CCNC(=O)c1cc(NC(=O)c2cc(NC(=O)c3ccc(C=Cc4ccc(N(C)C)cc4)nc3)cn2C)cn1C)NC [Ia9]", "target_or_system": "Genomic double stranded DNA (salmon)", "qualitative_label": "N"}

I'd appreciate it if you could say whether CN(C)c1ccc(/C=C/c2ccc(C(=O)Nc3c[nH]c(C(=O)Nc4c[nH]c(C(=O)NCCC(=N)N)c4)c3)cn2)cc1 [IIIa9] has % Normalised Fluorescence with gDNA at least equal to 20%. N

I'd appreciate it if you could say whether Cn1cc(NC(=O)c2cc(NC(=O)c3ccc(/C=C/c4cnc5ccccc5c4)cc3)cn2C)cc1C(=O)NCCC(=N)NCCC1CCOCC1 [Ia44] has % Normalised Fluorescence with gDNA at least equal to 20%. N

I'd appreciate it if you could say whether COc1ccc(/C=C/c2ccc(C(=O)Nc3cc(C(=O)Nc4cc(C(=O)NCCC(=N)NC(C)C)n(C)c4)n(C)c3)cc2)cc1 [Ia18] has % Normalised Fluorescence with gDNA at least equal to 20%. N

I'd appreciate it if you could say whether Cn1cc(NC(=O)c2ccc(/C=C/c3cnc4ccccc4c3)cc2)cc1C(=O)Nc1c[nH]c(C(=O)NCCN2CCOCC2)c1 [IIIb4] has % Normalised Fluorescence with gDNA at least equal to 20%. Y

I'd appreciate it if you could say whether Cn1cc(NC(=O)c2cc(NC(=O)c3ccc(/C=C/c4ccc5nonc5c4)cc3)c[nH]2)cc1C(=O)NCCN1CCOCC1 [IIIb9] has % Normalised Fluorescence with gDNA at least equal to 20%. Y

* * *

- System: PolyAU double stranded RNA
- procedure_details: Fluorescence intercalator displacement (FID) assay, SYBR-safe probe
- particulars: 20 μM compound, 30° C., lower % = stronger binding
compounds and their reported % Normalised Fluorescence with polyAU RNA

Study these solved cases before continuing.
{"compound": "CCCCCCC/N=C(\\CCNC(=O)c1cc(NC(=O)c2cc(NC(=O)c3ccc(/C=C/c4ccc(N(C)C)cc4)nc3)cn2C)cn1C)NCCCCCCC [Ia33]", "reported": "24%"}
{"compound": "CN1CCN(C(=N)CCNC(=O)c2cc(NC(=O)c3cc(NC(=O)c4ccc(/C=C/c5cnc6ccccc6c5)cc4)cn3C)cn2C)CC1 [Ib3]", "reported": "5%"}

Sample N=C(N)CCNC(=O)c1cc(NC(=O)c2cc(NC(=O)c3ccc(/C=C/c4cnc5ccccc5c4)cc3)c[nH]2)c[nH]1 [IIIa6] — what was its % Normalised Fluorescence with polyAU RNA? 29%

* * *

- System: Candida glabrata (ACPF3309)
- particulars: Nakaseomyces glabratus, read-out: MIC99 Candida glabrata
test_readout: MIC99

Study these solved cases before continuing.
{"item_smiles": "[H]/N=C(\\CCNC(=O)c1cc(NC(=O)c2cc(NC(=O)c3ccc(C=Cc4ccc(N(C)C)cc4)nc3)cn2C)cn1C)NC", "test_readout": "MIC99", "reported": "5 to 25 µg/mL"}
{"item_smiles": "Cn1cc(NC(=O)c2cc(NC(=O)c3ccc(/C=C/c4cnc5ccccc5c4)cc3)cn2C)cc1C(=O)NCCC(=N)NCCC1CCOCC1", "test_readout": "MIC99", "reported": "5 to 25 µg/mL"}

Sample CCCCCCC/N=C(\CCNC(=O)c1cc(NC(=O)c2cc(NC(=O)c3ccc(/C=C/c4ccc(N(C)C)cc4)nc3)cn2C)cn1C)NCCCCCCC — what was its MIC99? > 50 µg/mL

Sample CC(C)/N=C(\N)CCNC(=O)c1cc(NC(=O)c2cc(NC(=O)c3ccc(/C=C/c4ccc5nonc5c4)cc3)cn2C)cn1C — what was its MIC99? 25 to 50 µg/mL
